Data provenance is FireProtDB (doi:10.1016/0022-2836(92)90564-z).

B1: Ribonuclease, P00648 (parent)
chain: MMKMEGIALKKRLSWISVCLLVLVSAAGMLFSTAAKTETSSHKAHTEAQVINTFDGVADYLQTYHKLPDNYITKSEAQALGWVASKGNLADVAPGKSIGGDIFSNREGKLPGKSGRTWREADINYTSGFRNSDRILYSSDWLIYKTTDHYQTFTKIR

Variants of: B1
condition-summary: Bacillus amyloliquefaciens; pH 6.3; 25 °C; Urea; Fluorescence; MES 1.00 M; NaCl 613 mM; reversible: yes; structure 1BNI; whole UniProt chain shown
assay-readout: ddG of mutation (higher = less stable) (kcal/mol)
One number for each entry, in kcal/mol.

Query string: Given the variant V83A , what is its reported ddG of mutation (higher = less stable)?
Result string: 1.34

For every item in the list below, what is its measured ddG of mutation (higher = less stable)?
1. N52A
2. V92A
3. I98V
4. N131A
5. K109R
6. T152V
7. I102T
8. N88D

Result string:
1: 2.06; 2: 1.83; 3: 1.85; 4: 2.24; 5: 0.43; 6: 2.25; 7: 1; 8: 2.51

# batch size: 5; output ddG of mutation (higher = less stable) per entry
1. L136V
2. I102A
3. I156V
4. E76G
5. S139A

Result string:
1: 0.03; 2: 1.28; 3: 0.82; 4: 1.9; 5: 2.74

I'm hoping you can list ddG of mutation (higher = less stable) for every variant here, please.
1. I51V
2. I135A

Result string:
1: 0.67; 2: 2.76
